# testedOn: ScLsb4
# assayName: SPOT peptide array binding signal intensity (averaged, normalized) (arbitrary units (background-subtracted, floor 0; scale differs between SH3 domains)); higher = stronger binding of the SH3 domain to the peptide
endpointName: SPOT peptide array binding signal intensity

- binder: "VRTRRRPPPPPIPST"
  censoringQualifier: "="
  number: 23.5
- binder: "EREKALPPIPFTTTL"
  censoringQualifier: "="
  number: 0.5
- binder: "IHTRRPSSTSQYLIR"
  censoringQualifier: "="
  number: 6.5
- binder: "ALFRLSFFFPLDPAY"
  censoringQualifier: "="
  number: 104
- binder: "FIRKRAPTPPAPSRS"
  censoringQualifier: "="
  number: 26
- binder: "EAEEAAPQLPSRSSA"
  censoringQualifier: "="
  number: 3370
- binder: "NNFYRPLLRSVLVLL"
  censoringQualifier: "≤"
  number: 0
